- System: DU-145 prostate
- Assay Notes: NCI-60 one-dose screen, 48 h
- Test Parameters: 10 µM unless noted
About 83,000 compounds went through this panel and 20% of them were active in at least one assay; those are over-represented in the sample as a whole. Active and inactive are the calls of the source. The calls were made as follows: active = growth percent below 10; inactive = the rest.
Select the matching outcome among active, inactive

Q: Name the outcome recorded for "CCCCC/C(C=C(C#N)C#N)=C/c1ccccc1" in the assay.
A: inactive

Q: Name the outcome recorded for "COc1cccc(-c2nn(C(C)(C)C)cc2-c2ccnc(NCCCNS(=O)(=O)c3cccc4ccccc34)c2)c1" in the assay.
A: inactive

Q: Name the outcome recorded for "CCOC(=O)c1csc(NC(=O)COc2cccc(/C=C3\CSc4ccccc4C3=O)c2)n1" in the assay.
A: inactive

Q: Name the outcome recorded for Cc1ccc(C(SCC(N)C(=O)O)(c2ccccc2)c2ccc(C)cc2)cc1 (stereo not given) in the assay.
A: active

Q: Name the outcome recorded for "COc1ccc2nc(NC(=O)CSc3nnc4n3S(=O)(=O)c3ccccc3N4c3ccccc3)sc2c1" in the assay.
A: inactive

Q: Name the outcome recorded for "N=C(N)c1ccc(-c2ccc(-c3ccc4ccccc4c3)s2)s1" in the assay.
A: active

Q: Name the outcome recorded for "COc1cccc(-c2nc3sccn3c2-c2ccnc(NCCNS(=O)(=O)c3ccc(F)cc3)c2)c1" in the assay.
A: inactive

Q: Name the outcome recorded for CC(=O)NCC1c2c(n(C)c3c(Cl)c(Cl)ccc23)C(=O)NC1(C)C (stereo not given) in the assay.
A: inactive

Q: Name the outcome recorded for "CN(C)S(=O)(=O)c1ccc(S(=O)(=O)Nc2cccc(Cl)c2N2CCCCC2)cc1" in the assay.
A: inactive

Q: Name the outcome recorded for "CSc1nc2c(c(=O)[nH]1)C1(C(=O)Nc3ccccc31)c1c(nc(SC)[nH]c1=O)N2" in the assay.
A: inactive

meta.source: PubChem BioAssay (NCI)
